tested.system: SARS-CoV1 Spike [change] (SARS-CoV-1, UniProt P59594 14-667)
assay.method.text: Octet BLI, IgG, monovalent
reported.metric: binding result

- A-4 (antibody, V domains shown) VH: EVQLVESGGGLIQPGGSLTLSCAASGFTVSSNYMNWVRQAPGKGLEWVSVIYSGGSTYYADSVKGRFTISRDNSKNTLYLQMNSLRAEDTAVYYCAREVYSYFDYWGQGTLVTVSS VL: DIQLTQSPSFLSASVGDRVTITCRASQGISSYLAWYQQKPGKAPKLLIYAASTLQSGVPSRFSGSGSGTEFTLTISRLQPEDLATYYCQQLNSYPPHTFGQGAKLEIK: no binding
- A-3 (antibody, V domains shown) VH: EVQLLESGPGLVKPSETLSLTCTVSGGSINSRSYYWGWIRQPPGKGLEWIGSIYYSGSTYYNPSLKSRVTISVDTSKNQFSLKLSSVIAADTAVYFCARLEQWELPGGWFDPWGQGTLVTVSS VL: NFMLTQPHSVSESPGKTVTISCTRSSGSIASNYVQWYQQRPGSAPTTVIYEDNQRPSGVPDRFSGSIDISSNSASLTISGLKTEDEADYSCQSSDSSNVVFGGGTKLTVL: no binding
- A-13 (antibody, V domains shown) VH: QVQLVQSGAEVKKPGASVKVSCKASGYTFTDYYMHWVRQAPGQGLEWMGWINPNSGGTNSAQKFQGRVTMTRDTSINTAYMELSRLRSDDTAVYFCARDSHLAMVRGDFEYWGQGTLVTVSS VL: QSVLTQPASVSGSPGQSITISCTGTSSDVESYNVVSWYQQHPGKAPKLMIYEVSKRPSGVSHRFSGSKSGNTASLTISGLQAEDESDYYCCSYAGNSTWVFGGGTKLTVL: no binding
- A-12 (antibody, V domains shown) VH: EVQLLESGGGLVQPGGSLRLSCAVSGLTVSSNYMSWVRQAPGKGLEWVSLIYSGGSTYYADSVKGRFTISRDNSKNTLYLQMNSLRAEDTAVYYCARGELGIPYGMDVWGQGTTVTVSS VL: QSVLTQPPSVSAAPGQKVTISCSGGSSNVGDNFVSWYQQLPGTAPKLLIYDNNRRPSGIPDRFSGSKSGTSATLGITGLQTGDEADYYCGTWDSSLSAGVFGGGTKVTVL: no binding
- A-7 (antibody, V domains shown) VH: EVQLVESGAEVRKPGASVKVSCKASGYTFTFYYIHWVRQAPGQGLEWMGWISPISGATNYAQTFQGRVTMTRDTSITTAYMELSSLTSDDTAVYYCAREKYYDSSGSSDYWGQGTLVTVSS VL: QPVLTQPPSVSAAPGQNVTIFCSGSSSNIGNNYVSWYQQLPGPAPKLLIYENNKRPSGIPDRFSGSKSGTSATLGITGLQTGDEADYYCGTWESSLSAPRVFGSGTKLTVL: no binding
- A-9 (antibody, V domains shown) VH: EVQLVESGGGLVKPGRSLRLSCAASGFTFADYAMSWFRQAPGKGLEWVGFIRSKPYGGTTEYAASVKGRFTISRDDSKSIAYLQMNSLKTEDTAVYYCSRDPWYCSGGDCYAVTGSWFDPWGQGTLVTVSS VL: DIVLTQSPSSLSASVGDRVTITCQASQDIKKYLNWYQQKPGKAPKLLIYDVSNLETGVPSRFSGSGSGTDFTFTISSLQPEDVAIYYCQQYDNLPQTFGQGTKVDIK: no binding
